The reported numbers originate from patent US20060135569A1.

This section presents molecules with their documented TA97 +S9 values.
- Test system: TA97
- measurement-notes: Ames test, strain TA97
- Type: cell-based
- applied-conditions: 5 μg/dish

molecule: O=c1c2cc(F)ccc2[se]n1-c1cccnc1 [IMM-128]
TA97 +S9: 63.00

molecule: O=c1c2cc(Cl)ccc2[se]n1-c1ccccn1 [IMM-004]
TA97 +S9: 80.67

molecule: C/C(=N\O)c1ccc(-n2[se]c3ccccc3c2=O)cc1 [IMM-065]
TA97 +S9: 76.00

molecule: O=c1c2ccc(Cl)cc2[se]n1-c1ccncc1 [IMM-313]
TA97 +S9: 70.33

molecule: O=c1c2cc(F)ccc2[se]n1-c1ccccn1 [IMM-127]
TA97 +S9: 59.67
